test_system: Vitronectin Receptor (αVβ3) (Homo sapiens, UniProt P05106+P06756)
Construct: expressed in transfected cells; host or cells: 512P5 cells (plasma membrane preparation)
Sequence (P06756 31-889 limits assumed, one chain of several): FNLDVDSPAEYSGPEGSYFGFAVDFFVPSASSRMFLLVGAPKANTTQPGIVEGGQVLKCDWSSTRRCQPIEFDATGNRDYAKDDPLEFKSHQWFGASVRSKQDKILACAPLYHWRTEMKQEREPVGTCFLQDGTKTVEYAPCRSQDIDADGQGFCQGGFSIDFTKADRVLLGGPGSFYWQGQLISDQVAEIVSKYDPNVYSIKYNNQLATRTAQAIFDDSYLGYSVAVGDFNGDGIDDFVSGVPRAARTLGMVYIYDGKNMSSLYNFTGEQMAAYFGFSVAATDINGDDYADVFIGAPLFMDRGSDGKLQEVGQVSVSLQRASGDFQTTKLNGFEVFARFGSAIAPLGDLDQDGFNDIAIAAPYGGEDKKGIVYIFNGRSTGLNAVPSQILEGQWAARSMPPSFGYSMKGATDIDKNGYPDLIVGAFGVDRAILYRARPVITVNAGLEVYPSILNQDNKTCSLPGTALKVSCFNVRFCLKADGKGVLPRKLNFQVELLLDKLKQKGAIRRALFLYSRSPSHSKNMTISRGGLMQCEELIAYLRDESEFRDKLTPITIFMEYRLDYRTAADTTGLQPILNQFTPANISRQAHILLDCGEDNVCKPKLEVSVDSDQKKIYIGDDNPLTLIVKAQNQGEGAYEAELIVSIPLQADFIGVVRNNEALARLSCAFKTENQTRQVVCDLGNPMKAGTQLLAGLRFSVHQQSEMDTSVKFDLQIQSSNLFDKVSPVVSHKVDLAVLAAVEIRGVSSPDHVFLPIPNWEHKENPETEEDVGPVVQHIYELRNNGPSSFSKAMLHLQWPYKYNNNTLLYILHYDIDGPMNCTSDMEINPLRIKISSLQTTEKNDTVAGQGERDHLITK
Sequence (P06756 891-1048 partner limits assumed, one chain of several): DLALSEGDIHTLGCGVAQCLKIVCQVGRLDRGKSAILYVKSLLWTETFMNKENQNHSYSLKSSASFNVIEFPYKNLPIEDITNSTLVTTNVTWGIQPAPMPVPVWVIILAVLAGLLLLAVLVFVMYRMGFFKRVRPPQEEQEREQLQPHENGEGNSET
assay_info: Vitronectin Receptor (αVβ3) Binding Test Procedure
particulars: read-out: (αVβ3) IC50 RECEPTOR BINDING
Note to self: use Fulfilled only for IC50 readings below 3000 nM; a reading exactly at 3000 nM still gets Not fulfilled.

[[record]]
compound = "N=C(N)NCCCOc1ccc2c(c1)CCCC(CC(=O)O)C2.O=C(O)C(F)(F)F (stereo not shown) [Example 62, Trifluoroacetate]"
label = "Fulfilled"

[[record]]
compound = "N=C(N)NCCCCCc1ccc2c(c1)NC(=O)C(CC(=O)O)C2.O=C(O)C(F)(F)F (stereo not shown) [Example 122, Trifluoroacetate]"
label = "Not fulfilled"

[[record]]
compound = "O=C(O)CC1CCc2cc(OCCCNC3=NCCCN3)ccc2C1 (stereo not shown)"
label = "Fulfilled"

[[record]]
compound = "N=C(N)NCCCCc1ccc2c(c1)NC(=O)C(CC(=O)O)C2.O=C(O)C(F)(F)F (stereo not shown) [Example 121, Trifluoroacetate]"
label = "Fulfilled"

[[record]]
compound = "N=C(N)NCCCC=Cc1ccc2c(c1)NC(=O)C(CC(=O)O)C2.O=C(O)C(F)(F)F (stereo not shown) [Example 113, Trifluoroacetate]"
label = "Not fulfilled"

[[record]]
compound = "N=C(N)NCCCCOc1ccc2c(c1)NC(=O)C(CC(=O)O)C2.O=C(O)C(F)(F)F (stereo not shown) [Example 84, Trifluoroacetate]"
label = "Not fulfilled"

[[record]]
compound = "N=C(N)NCCCOc1ccc2c(c1)CCC(CC(=O)O)C2.O=C(O)C(F)(F)F (stereo not shown)"
label = "Fulfilled"


---

test_system: αIIbβ3 integrin (Homo sapiens, UniProt P05106+P08514)
Construct: Human Platelets: Platelet-enriched plasma was obtained commercially from a donor pool; from tissue; host or cells: human platelet-rich plasma from a commercial donor pool
Sequence (P08514 32-887 limits assumed): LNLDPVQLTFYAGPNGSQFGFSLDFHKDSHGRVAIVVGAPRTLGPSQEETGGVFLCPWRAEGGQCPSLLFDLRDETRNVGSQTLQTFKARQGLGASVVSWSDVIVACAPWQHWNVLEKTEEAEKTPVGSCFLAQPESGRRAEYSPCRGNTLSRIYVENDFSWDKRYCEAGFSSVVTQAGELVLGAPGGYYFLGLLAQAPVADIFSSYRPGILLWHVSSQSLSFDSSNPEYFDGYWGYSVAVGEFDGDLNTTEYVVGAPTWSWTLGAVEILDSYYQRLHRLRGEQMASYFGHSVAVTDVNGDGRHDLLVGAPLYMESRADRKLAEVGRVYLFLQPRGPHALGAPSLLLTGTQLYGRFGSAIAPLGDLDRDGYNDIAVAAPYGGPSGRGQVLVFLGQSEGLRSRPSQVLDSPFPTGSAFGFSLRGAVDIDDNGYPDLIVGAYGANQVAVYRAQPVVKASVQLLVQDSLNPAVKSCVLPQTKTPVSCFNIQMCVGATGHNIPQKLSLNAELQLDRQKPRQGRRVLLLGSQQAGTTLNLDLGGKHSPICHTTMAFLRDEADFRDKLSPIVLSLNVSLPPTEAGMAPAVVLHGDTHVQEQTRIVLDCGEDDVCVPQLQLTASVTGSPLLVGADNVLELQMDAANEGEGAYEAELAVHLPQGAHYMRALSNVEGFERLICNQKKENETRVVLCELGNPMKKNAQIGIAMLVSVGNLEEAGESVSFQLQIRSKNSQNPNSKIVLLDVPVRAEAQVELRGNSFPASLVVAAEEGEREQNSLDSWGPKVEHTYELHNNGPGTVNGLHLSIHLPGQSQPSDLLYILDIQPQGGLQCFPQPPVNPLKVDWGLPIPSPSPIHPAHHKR
Sequence (P08514 891-1039 partner limits assumed): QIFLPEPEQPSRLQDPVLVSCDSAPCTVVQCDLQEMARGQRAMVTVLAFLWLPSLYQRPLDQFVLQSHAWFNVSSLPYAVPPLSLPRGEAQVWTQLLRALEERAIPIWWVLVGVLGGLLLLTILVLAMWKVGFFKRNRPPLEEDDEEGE
Sequence (P05106 27-788): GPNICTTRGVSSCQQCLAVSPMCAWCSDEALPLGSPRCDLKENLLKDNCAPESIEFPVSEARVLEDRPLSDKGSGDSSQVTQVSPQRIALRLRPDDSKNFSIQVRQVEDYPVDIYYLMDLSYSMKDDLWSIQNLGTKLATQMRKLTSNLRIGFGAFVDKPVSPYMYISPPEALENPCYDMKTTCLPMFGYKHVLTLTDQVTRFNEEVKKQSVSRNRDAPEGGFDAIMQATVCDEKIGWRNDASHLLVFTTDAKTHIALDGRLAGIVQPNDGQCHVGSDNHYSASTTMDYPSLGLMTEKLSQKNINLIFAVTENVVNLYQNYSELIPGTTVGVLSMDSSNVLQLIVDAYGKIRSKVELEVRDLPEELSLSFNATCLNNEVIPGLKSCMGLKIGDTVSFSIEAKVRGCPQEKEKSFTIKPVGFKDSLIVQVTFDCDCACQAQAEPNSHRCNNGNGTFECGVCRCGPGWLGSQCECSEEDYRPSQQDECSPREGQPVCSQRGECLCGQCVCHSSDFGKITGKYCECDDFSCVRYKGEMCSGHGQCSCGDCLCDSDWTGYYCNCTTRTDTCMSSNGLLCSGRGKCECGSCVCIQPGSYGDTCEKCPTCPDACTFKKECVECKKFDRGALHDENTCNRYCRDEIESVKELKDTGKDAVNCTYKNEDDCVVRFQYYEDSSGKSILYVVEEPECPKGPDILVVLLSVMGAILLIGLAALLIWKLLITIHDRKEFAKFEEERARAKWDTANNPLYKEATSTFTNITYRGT
assay_info: ADP-Induced Platelet Aggregation
Assay type: cell-based
particulars: Table VII; ADP 20 uM, human platelets; read-out: Platelet Aggregation αIIbβ3 IC50
Structures can show the parent of a compound that is named as a salt.
Recorded IC50 for the following molecules
measured_metric: IC50 (µM)

[[record]]
molecule = "COC(=O)CC1CCc2cc(OCCCNC3=NCCCN3)ccc2C1 (stereo not drawn) [Example 215, Bis(hydrochloride)]"
test_system = "αIIbβ3 integrin (Homo sapiens, UniProt P05106+P08514)"
measured_metric = "IC50"
assay_value = 151

[[record]]
molecule = "N=C(N)NCCCOc1ccc2c(c1)CCC(CC(=O)O)C2.O=C(O)C(F)(F)F (stereo not drawn) [Example 37]"
test_system = "αIIbβ3 integrin (Homo sapiens, UniProt P05106+P08514)"
measured_metric = "IC50"
assay_value = 82.4

[[record]]
molecule = "N=C(N)NCCCOc1ccc2c(c1)CCCC(CC(=O)O)C2.O=C(O)C(F)(F)F (stereo not drawn) [Example 62, Trifluoroacetate]"
test_system = "αIIbβ3 integrin (Homo sapiens, UniProt P05106+P08514)"
measured_metric = "IC50"
assay_value = 169


All figures here come from patent US20030109523A1.
